B1: tRNA (parent)
chain: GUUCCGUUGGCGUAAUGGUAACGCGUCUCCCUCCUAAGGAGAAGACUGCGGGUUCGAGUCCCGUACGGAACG

# Variants of: B1
# Experimental Protocol: yeast fitness relative to wild type (ratio to wild type); higher = fitter; tRNA-Arg(CCU), competitive growth, 37 C, YPD
This sample holds only a part of the variants without activity.
Reported Property: yeast fitness

Fill in the blank: the reported yeast fitness of C4U G12A G39C G44A A57U is ____.
≤ 0.5

Fill in the blank: the reported yeast fitness of G6C G10C A69C is ____.
0.589

Fill in the blank: the reported yeast fitness of U3C A20G A43G is ____.
0.744

Fill in the blank: the reported yeast fitness of U26A C29A A45U G58A is ____.
≤ 0.5

Fill in the blank: the reported yeast fitness of U3C A20G U47C is ____.
0.686

Fill in the blank: the reported yeast fitness of C11U C22G A70C is ____.
0.669

Fill in the blank: the reported yeast fitness of G58A A70U is ____.
0.955

Fill in the blank: the reported yeast fitness of A21U C24G C49A U54G is ____.
0.56

Fill in the blank: the reported yeast fitness of U16G A20G is ____.
1

Fill in the blank: the reported yeast fitness of C60G G68A is ____.
0.695

Fill in the blank: the reported yeast fitness of G48C A57U is ____.
0.622

Fill in the blank: the reported yeast fitness of A15G A57U A65U is ____.
≤ 0.5

Fill in the blank: the reported yeast fitness of G6A G12A A20G C22G U26A G48C A65U is ____.
≤ 0.5

Fill in the blank: the reported yeast fitness of G38C A69U A70U is ____.
≤ 0.5

Fill in the blank: the reported yeast fitness of C30U C46A G51A is ____.
0.608

Fill in the blank: the reported yeast fitness of U7A G17A C30A A65C is ____.
≤ 0.5

Fill in the blank: the reported yeast fitness of C11G C22U C27U U47A G52C is ____.
0.67

Fill in the blank: the reported yeast fitness of G6A A45G A70U is ____.
0.775

Fill in the blank: the reported yeast fitness of C33U G44A C61U is ____.
0.675

Fill in the blank: the reported yeast fitness of C5U U13C C24G U26C A37G U54G C61G is ____.
0.575

Fill in the blank: the reported yeast fitness of U8G A20U G44C is ____.
0.558

Fill in the blank: the reported yeast fitness of U59C A70G is ____.
1.01

Fill in the blank: the reported yeast fitness of G25A A42U A57G is ____.
≤ 0.5

Fill in the blank: the reported yeast fitness of A15U C33G C49A C60G is ____.
≤ 0.5

Fill in the blank: the reported yeast fitness of U3A G39C A45G G50A is ____.
≤ 0.5

Fill in the blank: the reported yeast fitness of G23A C34A A43U U47C C62G C66A is ____.
0.689

Fill in the blank: the reported yeast fitness of C4G G17A G41C G58A is ____.
≤ 0.5

Fill in the blank: the reported yeast fitness of C4A U19A C27U G67A is ____.
0.573

Fill in the blank: the reported yeast fitness of C22A A57U is ____.
0.606

Fill in the blank: the reported yeast fitness of U28C A42G is ____.
0.913

Fill in the blank: the reported yeast fitness of G9C U16A C24U C30U C62U is ____.
≤ 0.5

Fill in the blank: the reported yeast fitness of U8C G10C G23C C29G G51A is ____.
0.72

Fill in the blank: the reported yeast fitness of C4G U7A U19C A20C C55A G68C is ____.
≤ 0.5

Fill in the blank: the reported yeast fitness of C5A A37U C66U is ____.
≤ 0.5

Fill in the blank: the reported yeast fitness of A15G C30A G48C is ____.
≤ 0.5

Fill in the blank: the reported yeast fitness of C34G A37G G38A G50A is ____.
≤ 0.5

Fill in the blank: the reported yeast fitness of U59G G63C is ____.
0.639

Fill in the blank: the reported yeast fitness of U7C C33G A37G A70G is ____.
≤ 0.5

Fill in the blank: the reported yeast fitness of G10C C27U C30U U53A A69C is ____.
≤ 0.5

Fill in the blank: the reported yeast fitness of C29G C33G U35G G44A G67A is ____.
≤ 0.5

Fill in the blank: the reported yeast fitness of C5U C22U C33U G67A is ____.
≤ 0.5

Fill in the blank: the reported yeast fitness of C29A A37G U64A A70U is ____.
≤ 0.5

Fill in the blank: the reported yeast fitness of G12A A57C C66G is ____.
≤ 0.5

Fill in the blank: the reported yeast fitness of C22G G58A is ____.
1.07

Fill in the blank: the reported yeast fitness of C4A U26A is ____.
0.683

Fill in the blank: the reported yeast fitness of U16A C24G is ____.
0.528

Fill in the blank: the reported yeast fitness of U13A A15G C66U is ____.
0.644

Fill in the blank: the reported yeast fitness of U8C C11A U54C is ____.
≤ 0.5

Fill in the blank: the reported yeast fitness of C24A C33A C46U is ____.
0.534

Fill in the blank: the reported yeast fitness of C5G C11U C31U is ____.
0.676

Fill in the blank: the reported yeast fitness of C4A A14G C24U U32G A43G A65U is ____.
≤ 0.5

Fill in the blank: the reported yeast fitness of G12C U59C C60A is ____.
≤ 0.5

Fill in the blank: the reported yeast fitness of U13A U19A A42U G51C is ____.
≤ 0.5

Fill in the blank: the reported yeast fitness of C5G G9C U35G C66U is ____.
≤ 0.5

Fill in the blank: the reported yeast fitness of C11A A15U A20C is ____.
≤ 0.5

Fill in the blank: the reported yeast fitness of U59G C66A is ____.
0.62

Fill in the blank: the reported yeast fitness of G10A G18A A42C C61A is ____.
0.858

Fill in the blank: the reported yeast fitness of U3A G67A is ____.
0.684

Fill in the blank: the reported yeast fitness of C55U G67C is ____.
0.677

Fill in the blank: the reported yeast fitness of C5G C11G C27G G67U is ____.
≤ 0.5

Fill in the blank: the reported yeast fitness of G12C A20C G48A is ____.
0.749

Fill in the blank: the reported yeast fitness of U13A G50A is ____.
0.806

Fill in the blank: the reported yeast fitness of U19G G41A G48C C49U A57C A70U is ____.
≤ 0.5

Fill in the blank: the reported yeast fitness of G12C U59A A69C is ____.
≤ 0.5

Fill in the blank: the reported yeast fitness of G51A G58A is ____.
0.967

Fill in the blank: the reported yeast fitness of A20C A43C A69U A70C is ____.
0.725

Fill in the blank: the reported yeast fitness of U35C G48C is ____.
0.973

Fill in the blank: the reported yeast fitness of C5U A14G G50C C55U A57G C66U is ____.
≤ 0.5

Fill in the blank: the reported yeast fitness of G18C U26A A45G C66G is ____.
≤ 0.5

Fill in the blank: the reported yeast fitness of C4G G18C C24G C29G is ____.
≤ 0.5

Fill in the blank: the reported yeast fitness of G9A U26A is ____.
0.837

Fill in the blank: the reported yeast fitness of U2C G6C A65U G67A is ____.
≤ 0.5

Fill in the blank: the reported yeast fitness of G44A A57U C66U is ____.
0.547

Fill in the blank: the reported yeast fitness of U2G U7C G18C A42U C49G is ____.
≤ 0.5

Fill in the blank: the reported yeast fitness of G18A G25A A70G is ____.
0.54

Fill in the blank: the reported yeast fitness of G6A A20C U28A C31A C33U A37C G50A A65U is ____.
≤ 0.5

Fill in the blank: the reported yeast fitness of U2A G12C A36C is ____.
≤ 0.5

Fill in the blank: the reported yeast fitness of C5A G6C G10A A42C is ____.
≤ 0.5

Fill in the blank: the reported yeast fitness of C5A A14G C31U C34U C60G G63A is ____.
≤ 0.5

Fill in the blank: the reported yeast fitness of U26A C46G is ____.
0.973

Fill in the blank: the reported yeast fitness of A15G G18A A69U is ____.
0.648

Fill in the blank: the reported yeast fitness of U2A C31A A57G is ____.
0.555

Fill in the blank: the reported yeast fitness of C4A C22U U54A is ____.
0.685

Fill in the blank: the reported yeast fitness of C33U A36C is ____.
0.517

Fill in the blank: the reported yeast fitness of C5U U16G C34A U53C C60U is ____.
≤ 0.5

Fill in the blank: the reported yeast fitness of U16A G17A C22G C61U G68C is ____.
0.659

Fill in the blank: the reported yeast fitness of U3A C27A C30U G41C A43U C49A is ____.
≤ 0.5

Fill in the blank: the reported yeast fitness of U2C U47A C62U is ____.
0.531

Fill in the blank: the reported yeast fitness of C11G A15C G38C C49G is ____.
≤ 0.5

Fill in the blank: the reported yeast fitness of C29G C30G A36G A65C is ____.
0.505

Fill in the blank: the reported yeast fitness of U2G U32C C33G C62U is ____.
0.535
